These data points were gathered from ChEMBL document CHEMBL4680100.

- Test method notes: Kinetic solubility of the compound in 0.01 M HCl at pH 2 by nephelometry
- Assay type: physicochemical
- Details: read-out: Kinetic_solubility
Experimental endpoint: solubility kinetic (µg/mL)

INSERT INTO results (molecule, bound_sign, test_result) VALUES
  ('O=C1C2CCCN2C(=O)N1c1ccc(F)c(C(F)(F)F)c1 (stereo not drawn)', '=', 25),
  ('CC1(C)C(=O)N(c2ccc(F)c(C(F)(F)F)c2)C(=O)N1CC(N)=O', '=', 50),
  ('CC1(C)NC(=O)N(c2ccc(F)c(C#N)c2)C1=O', '>', 100),
  ('CC1(C)C(=O)N(c2ccc(F)c(C(F)(F)F)c2)C(=O)N1S(C)(=O)=O', '=', 1.6),
  ('CCN1C(=O)N(c2ccc(F)c(C(F)(F)F)c2)C(=O)C1(C)C', '=', 50),
  ('CC1(C)C(=O)N(c2ccc(F)c(C(F)(F)F)c2)C(=O)N1CC#N', '=', 25),
  ('CC1(C)CNC(=O)N(c2ccc(F)c(C(F)(F)F)c2)C1=O', '=', 12.5),
  ('CC1(C)C(=O)N(c2ccc(F)c(C(F)(F)F)c2)C(=O)N1CCc1ccccc1', '=', 12.5),
  ('CC(C)(NC(=O)Nc1ccc(F)c(C(F)(F)F)c1)C(=O)O', '=', 25),
  ('CC1(C)NC(=O)C(c2ccc(F)c(C(F)(F)F)c2)C1=O (stereo not drawn)', '=', 25),
  ('CC1(C)CC(=O)N(c2ccc(F)c(C(F)(F)F)c2)C(=O)N1', '=', 25),
  ('CC1(C)NC(=O)N(c2cccnc2)C1=O', '>', 100),
  ('CN(C)C(=O)c1cc(N2C(=O)NC(C)(C)C2=O)ccc1F', '>', 100);

###

- System: Albumin (Homo sapiens)
- Sequence (P02768 whole entry): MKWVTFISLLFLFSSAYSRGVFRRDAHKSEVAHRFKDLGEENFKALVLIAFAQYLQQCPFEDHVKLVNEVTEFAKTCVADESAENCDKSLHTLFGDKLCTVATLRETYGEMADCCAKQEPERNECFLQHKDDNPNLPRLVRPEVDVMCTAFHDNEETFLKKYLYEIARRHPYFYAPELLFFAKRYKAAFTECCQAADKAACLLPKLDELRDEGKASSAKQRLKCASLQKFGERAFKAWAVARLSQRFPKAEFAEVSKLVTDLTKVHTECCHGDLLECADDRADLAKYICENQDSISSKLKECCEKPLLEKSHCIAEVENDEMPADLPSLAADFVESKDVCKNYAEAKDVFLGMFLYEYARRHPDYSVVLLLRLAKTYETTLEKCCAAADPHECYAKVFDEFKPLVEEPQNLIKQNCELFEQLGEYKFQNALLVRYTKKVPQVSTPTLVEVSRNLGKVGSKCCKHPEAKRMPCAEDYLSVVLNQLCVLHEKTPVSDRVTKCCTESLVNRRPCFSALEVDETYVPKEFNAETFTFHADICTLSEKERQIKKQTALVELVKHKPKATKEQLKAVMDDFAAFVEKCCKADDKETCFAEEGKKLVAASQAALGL
- Test method notes: Protein binding in immobilized human serum albumin by HPLC analysis
- Type: ADME
- Details: isolated protein
This section presents compounds with their documented PPB values.
Experimental endpoint: PPB (%)

INSERT INTO measurements (compound, system, u, test_result) VALUES
  ('CC(C)(NC(=O)Nc1ccc(F)c(C(F)(F)F)c1)C(=O)O', 'Albumin (Homo sapiens)', '%', 94.3),
  ('Cc1ccc(N2C(=O)NC(C)(C)C2=O)cc1C(F)(F)F', 'Albumin (Homo sapiens)', '%', 64.8),
  ('CC1(C)C(=O)N(c2ccc(F)c(C(F)(F)F)c2)C(=O)N1CC#N', 'Albumin (Homo sapiens)', '%', 48.2),
  ('O=C1NC2(CCCC2)C(=O)N1c1ccc(F)c(C(F)(F)F)c1', 'Albumin (Homo sapiens)', '%', 70.4),
  ('CC1(C)C(=O)N(c2ccc(F)c(C(F)(F)F)c2)C(=O)N1S(=O)(=O)c1ccccc1', 'Albumin (Homo sapiens)', '%', 96.1),
  ('CC1(C)NC(=O)N(c2cccnc2)C1=O', 'Albumin (Homo sapiens)', '%', 6.6),
  ('CC1(CO)NC(=O)N(c2ccc(F)c(C(F)(F)F)c2)C1=O (stereo unspecified)', 'Albumin (Homo sapiens)', '%', 34.3),
  ('CC1(C)CC(=O)N(c2ccc(F)c(C(F)(F)F)c2)C(=O)N1', 'Albumin (Homo sapiens)', '%', 15),
  ('CC1(C)NC(=O)N(c2ccc(Cl)c(C(F)(F)F)c2)C1=O', 'Albumin (Homo sapiens)', '%', 79.6),
  ('CC1(C)C(=O)NC(=O)N1c1ccc(F)c(C(F)(F)F)c1', 'Albumin (Homo sapiens)', '%', 67.1),
  ('CC1(C)NC(=O)C(c2ccc(F)c(C(F)(F)F)c2)C1=O (stereo unspecified)', 'Albumin (Homo sapiens)', '%', 93.3);
